- testedTarget: T1, TCE-14 (anti-CD3 scFv F104A; anti-TROP2 wt)
- T1 construct: scFv on the Fab heavy chain; also called TCE-14 (F104A)
- experiment: competition ELISA, TCE on captured CD3
Where no end group is shown, it is not given here.
endpointName: IC50 (µM)

1) QGCGTIADPEPHCW (cysteine pairing not given here; also: biotinylated, site not given here, mask peptide for the CD3 scFv) [Peptide-65] :: 6.46

P = ASQCLGPEWEVCPY (cysteine pairing not given here; also: biotinylated, site not given here, mask peptide for the CD3 scFv) [Peptide-74]
Q = SECLVDLQSDPCYW (cysteine pairing not given here; also: biotinylated, site not given here, mask peptide for the CD3 scFv) [Peptide-69]
R = VYCGPEFDESVGCM (cysteine pairing not given here; also: biotinylated, site not given here, mask peptide for the CD3 scFv) [Peptide-67]
S = GSQCLGPEWEVCPY (cysteine pairing not given here; also: biotinylated, site not given here, mask peptide for the CD3 scFv) [Peptide-66]
Query: Sort these binders on IC50 so the largest reading comes first. Please write the labels in the order that was asked for.
Result: Q, S, P, R
(Q: 11.8 µM, S: 7.09 µM, P: 2.47 µM, R: 0.24 µM)
